Experimental system: receptor binding domain (RBD) of the S1-subunit of SARS-CoV-2 glycoprotein S (SARS-CoV-2, UniProt P0DTC2 319-541)
Test name: ACE2:RBD competition, antibody at 0.5 µg/ml
Measured ACE2 bound to RBD at 0.5 µg/ml antibody, listed per entry for reference.

Field: example entries. Status: answers known.
- Binder: "YU505-F05 (antibody, V domains shown) VH: EVQLLESGGGVVQPGRSLRLSCAASGFTFSSYGMHWVRQAPGKGLEWVAVMSYDGSKKYYADSVKGRFTISRDNSKNTLYLQMNSLRAEDTAVYYCVTQGMDVWGQGTLVTVSS VL: QSVLTQPPSVSVAPGKTARITCGGNNIGSKSVHWYQQKPGQAPVLVIYYISDRPSGIPERFSGSNSGNTATLTISRVEAGDEAAYYCHVWDSSSDHVVFGGGTKLTVL"
  Attribute measured: "ACE2 bound to RBD at 0.5 µg/ml antibody"
  Recorded measurement: "< 60%"
- Binder: "YU505-A01 (antibody, V domains shown) VH: QVQLVQSGAEVKKPGASVKVSCKASGYTFTSYYMHWVRQAPGQGLEWMGIINPSGGSTSYAQKFQGRVTMTRDTSTSTVYMELSSLRSEDTAVYYCARDRHYYDSSGSSQATFLFDYWGQGTLVTVSS VL: QSVLTQPPSVSGAPGQRVTISCTGSSSNIGAGYDVHWYQQLPGTAPKLLIYGNSNRPSGVPDRFSGSKSGTSASLAITGLQAEDEADYYCQSYDSSLNVFGTGTKLTVL"
  Attribute measured: "ACE2 bound to RBD at 0.5 µg/ml antibody"
  Recorded measurement: "< 60%"

Consider the additional binder presented here.
# ACE2 bound to RBD at 0.5 µg/ml antibody (binder: YU505-E01 (antibody, V domains shown) VH: QVQLVQSGAEVKKPGSSVKVSCKASGGTFSSYSIVWVRQAPGQGLEWMGGIIPIFGTTNYAQKFQGRVTITADESTSTAFMELSNLKSEDTAVYFCARSLGATRDYWGQGTLVTVSS VL: SYVLTQPPSVSEAPRQRVTISCSGSSSNIGNNAVNWYQQLPGKAPKLLIYYDDLLPSGVSDRFSGSKSGTSASLAISGLQSEDEADYYCAAWDDSLNGPVFGGGTKVTVL ) is < 50%
